Origin of the recorded values: patent EP2961395B1

test: Plasma pharmacokinetics of free CPT in CD2F1 mice (comparison); details: CD2F1, mouse, in vivo, 10 mg/kg
measured_metric: AUC (ng·h/mL)
# unit: ng·h/mL | format: bare number

Query block: Param item = `CC[C@@]1(O)C(=O)OCc2c1cc1n(c2=O)Cc2cc3ccccc3nc2-1` ; retrieve measured AUC.
Result block: 1600
